# ASSAY_SYSTEM: pT7_6His-AlfaTag-HOXD13 (human, UniProt P35453 263-343)
# Sequence (P35453 263-343): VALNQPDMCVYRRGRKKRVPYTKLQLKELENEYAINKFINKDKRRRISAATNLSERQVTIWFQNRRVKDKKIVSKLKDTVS
# EXPERIMENT_NOTES: PADIT-seq
# TEST_PARAMETERS: dsDNA, one strand shown
Please use 1.0 whenever binding signal is not below 1 log2FC, and 0.0 whenever it is.

Q) Is binding signal at least 1 log2FC? Consider CTCGAGGATATCAAGATCTGGCCTCGGCTTTTTAGCTGGAACCTCTAGCTAGCCGACTCACTATAGGGATAATCGCCCTGAGCAAAGACC
A) 0.0

Q) Would you kindly repeat that for CTCGAGGATATCAAGATCTGGCCTCGGCGTTTTATTGGGAACCTCTAGCTAGCCGACTCACTATAGGGATAATCGCCCTGAGCAAAGACC ?
A) 1.0

Q) What do you have for CTCGAGGATATCAAGATCTGGCCTCGGCAGTTTAAAAGGAACCTCTAGCTAGCCGACTCACTATAGGGATAATCGCCCTGAGCAAAGACC ?
A) 1.0

Q) Another sequence to check: CTCGAGGATATCAAGATCTGGCCTCGGCTTTTTAATTGGAACCTCTAGCTAGCCGACTCACTATAGGGATAATCGCCCTGAGCAAAGACC
A) 1.0

Q) Also need CTCGAGGATATCAAGATCTGGCCTCGGCGGGCTAAAAGGAACCTCTAGCTAGCCGACTCACTATAGGGATAATCGCCCTGAGCAAAGACC , thanks.
A) 0.0

Q) # iterate: CTCGAGGATATCAAGATCTGGCCTCGGCTTGATAAAAGGAACCTCTAGCTAGCCGACTCACTATAGGGATAATCGCCCTGAGCAAAGACC
A) 0.0

Q) Would you mind doing CTCGAGGATATCAAGATCTGGCCTCGGCATTTTAACTGGAACCTCTAGCTAGCCGACTCACTATAGGGATAATCGCCCTGAGCAAAGACC as well?
A) 1.0

Q) Here is the next sequence: CTCGAGGATATCAAGATCTGGCCTCGGCTTTTTATATGGAACCTCTAGCTAGCCGACTCACTATAGGGATAATCGCCCTGAGCAAAGACC
A) 1.0

Q) Now the same for CTCGAGGATATCAAGATCTGGCCTCGGCGCATGGGCGGGAACCTCTAGCTAGCCGACTCACTATAGGGATAATCGCCCTGAGCAAAGACC
A) 0.0

Q) How about CTCGAGGATATCAAGATCTGGCCTCGGCCTTTTACCCGGAACCTCTAGCTAGCCGACTCACTATAGGGATAATCGCCCTGAGCAAAGACC ?
A) 0.0

Q) Same question for CTCGAGGATATCAAGATCTGGCCTCGGCCTTTTAAAGGGAACCTCTAGCTAGCCGACTCACTATAGGGATAATCGCCCTGAGCAAAGACC please.
A) 1.0

Q) // same read-out, input: CTCGAGGATATCAAGATCTGGCCTCGGCGTTTTAGGCGGAACCTCTAGCTAGCCGACTCACTATAGGGATAATCGCCCTGAGCAAAGACC
A) 0.0

Q) Then this sequence: CTCGAGGATATCAAGATCTGGCCTCGGCATTTTAGGAGGAACCTCTAGCTAGCCGACTCACTATAGGGATAATCGCCCTGAGCAAAGACC
A) 1.0

Q) And what about the sequence CTCGAGGATATCAAGATCTGGCCTCGGCCACTTAAAAGGAACCTCTAGCTAGCCGACTCACTATAGGGATAATCGCCCTGAGCAAAGACC ?
A) 1.0

----------
# ASSAY_SYSTEM: pT7_6His-AlfaTag-ZIF268 (human, UniProt P18146 335-423)
# EXPERIMENT_NOTES: PADIT-seq
# TEST_PARAMETERS: dsDNA, one strand shown
Can you tell me binding signal for the items I'm about to list?
Output spec: scalar in log2FC, unitless text.

Q) Form field: reported binding signal of CTCGAGGATATCAAGATCTGGCCTCGGCCGCCCACACGGAACCTCTAGCTAGCCGACTCACTATAGGGATAATCGCCCTGAGCAAAGACC
A) 1.63

Q) Same question, CTCGAGGATATCAAGATCTGGCCTCGGCGCGTGGTTAGGAACCTCTAGCTAGCCGACTCACTATAGGGATAATCGCCCTGAGCAAAGACC this time
A) 0.357

Q) Thanks! And CTCGAGGATATCAAGATCTGGCCTCGGCCGCCCACGTGGAACCTCTAGCTAGCCGACTCACTATAGGGATAATCGCCCTGAGCAAAGACC ?
A) 1.68

Q) Please answer likewise for CTCGAGGATATCAAGATCTGGCCTCGGCGCGGCGGCGGGAACCTCTAGCTAGCCGACTCACTATAGGGATAATCGCCCTGAGCAAAGACC
A) 0.141

Q) For CTCGAGGATATCAAGATCTGGCCTCGGCATCCCACGCGGAACCTCTAGCTAGCCGACTCACTATAGGGATAATCGCCCTGAGCAAAGACC then?
A) 0.41

Q) Same again, this time with CTCGAGGATATCAAGATCTGGCCTCGGCGCGTGGCTCGGAACCTCTAGCTAGCCGACTCACTATAGGGATAATCGCCCTGAGCAAAGACC
A) 0.122

Q) Now the same for CTCGAGGATATCAAGATCTGGCCTCGGCCTTTTATCGGGAACCTCTAGCTAGCCGACTCACTATAGGGATAATCGCCCTGAGCAAAGACC
A) 0.0806

Q) What do you get for CTCGAGGATATCAAGATCTGGCCTCGGCGTCCCACGCGGAACCTCTAGCTAGCCGACTCACTATAGGGATAATCGCCCTGAGCAAAGACC ?
A) 0.365

Q) And what about the sequence CTCGAGGATATCAAGATCTGGCCTCGGCGGCCCACGCGGAACCTCTAGCTAGCCGACTCACTATAGGGATAATCGCCCTGAGCAAAGACC ?
A) 0.55

Q) // repeat for CTCGAGGATATCAAGATCTGGCCTCGGCGCGTTGGCGGGAACCTCTAGCTAGCCGACTCACTATAGGGATAATCGCCCTGAGCAAAGACC and report
A) 1.75

Q) Now try CTCGAGGATATCAAGATCTGGCCTCGGCGCGTGGCGTGGAACCTCTAGCTAGCCGACTCACTATAGGGATAATCGCCCTGAGCAAAGACC .
A) 0.0995

Q) Check CTCGAGGATATCAAGATCTGGCCTCGGCGACATAAAAGGAACCTCTAGCTAGCCGACTCACTATAGGGATAATCGCCCTGAGCAAAGACC too.
A) 0.00765

Q) Thanks! And CTCGAGGATATCAAGATCTGGCCTCGGCCGCCTCCGCGGAACCTCTAGCTAGCCGACTCACTATAGGGATAATCGCCCTGAGCAAAGACC ?
A) 0.383

Q) Note, next up: CTCGAGGATATCAAGATCTGGCCTCGGCGCGTGGGTGGGAACCTCTAGCTAGCCGACTCACTATAGGGATAATCGCCCTGAGCAAAGACC
A) 4.08

Q) And the next one, CTCGAGGATATCAAGATCTGGCCTCGGCCTTTTAAGGGGAACCTCTAGCTAGCCGACTCACTATAGGGATAATCGCCCTGAGCAAAGACC ?
A) 0.073

Q) Would you kindly repeat that for CTCGAGGATATCAAGATCTGGCCTCGGCCGCCCACAAGGAACCTCTAGCTAGCCGACTCACTATAGGGATAATCGCCCTGAGCAAAGACC ?
A) 0.545

Q) Queued: CTCGAGGATATCAAGATCTGGCCTCGGCGCGTGGGGTGGAACCTCTAGCTAGCCGACTCACTATAGGGATAATCGCCCTGAGCAAAGACC
A) 1.28

Q) Next entry: CTCGAGGATATCAAGATCTGGCCTCGGCCTTTGGGCGGGAACCTCTAGCTAGCCGACTCACTATAGGGATAATCGCCCTGAGCAAAGACC
A) 0.262

Q) Another sequence to look at: CTCGAGGATATCAAGATCTGGCCTCGGCAGACCACGCGGAACCTCTAGCTAGCCGACTCACTATAGGGATAATCGCCCTGAGCAAAGACC
A) 0.0219

Q) What about CTCGAGGATATCAAGATCTGGCCTCGGCGCGTGGACGGGAACCTCTAGCTAGCCGACTCACTATAGGGATAATCGCCCTGAGCAAAGACC ?
A) 0.177

Q) And for CTCGAGGATATCAAGATCTGGCCTCGGCCGCGGCCGCGGAACCTCTAGCTAGCCGACTCACTATAGGGATAATCGCCCTGAGCAAAGACC ?
A) 0.0714

Q) Could you do the same for CTCGAGGATATCAAGATCTGGCCTCGGCGTCATAAAAGGAACCTCTAGCTAGCCGACTCACTATAGGGATAATCGCCCTGAGCAAAGACC , please?
A) 0.00486

Q) Another sequence to check: CTCGAGGATATCAAGATCTGGCCTCGGCGCGTGGGAAGGAACCTCTAGCTAGCCGACTCACTATAGGGATAATCGCCCTGAGCAAAGACC
A) 2.03

Q) Moving on to the next sequence: CTCGAGGATATCAAGATCTGGCCTCGGCGGGTTAAAAGGAACCTCTAGCTAGCCGACTCACTATAGGGATAATCGCCCTGAGCAAAGACC
A) 0.0267

Q) # iterate: CTCGAGGATATCAAGATCTGGCCTCGGCCAAGTAAAAGGAACCTCTAGCTAGCCGACTCACTATAGGGATAATCGCCCTGAGCAAAGACC
A) 0.0157

Q) Do the same for CTCGAGGATATCAAGATCTGGCCTCGGCGCGTGGTGTGGAACCTCTAGCTAGCCGACTCACTATAGGGATAATCGCCCTGAGCAAAGACC please
A) 0.166

Q) Can you check CTCGAGGATATCAAGATCTGGCCTCGGCCGCCCACCAGGAACCTCTAGCTAGCCGACTCACTATAGGGATAATCGCCCTGAGCAAAGACC next?
A) 0.0728
